# Test system: Nilaparvata lugens
# ASSAY_PROCEDURE: Nilaparvata lugens - spray test 1
# Assay type: in vivo
# COND: in Oryza sativa, 96 h, read-out: mortality in %, 500 g/ha, rice plants, after 4 days
Hi there, I'd appreciate the recorded mortality at 500 g/ha for every entry that follows.
Answer in %, number only, no unit symbol.

// CC(c1ncnn1-c1ncccn1)N(CC#N)C(=O)c1cc(Cl)cc(C(F)(F)F)c1 (centres unmarked) [Compound I-96] : mortality at 500 g/ha value = 100

# molecule CC(c1ncnn1-c1ncccn1)N(CC1CC1)C(=O)c1cc(Cl)cc(C(F)(F)F)c1 (centres unmarked) [Compound I-40] ; its mortality at 500 g/ha = 100

Form: molecule = CC(c1ncnn1-c1nccc(C(F)(F)F)n1)N(CC1CC1)C(=O)c1cc(Cl)cc(C(F)(F)F)c1 (centres unmarked) [Compound I-82] ; mortality at 500 g/ha = 100

CC(NC(=O)c1cc(C(F)(F)F)cc(C(F)(F)F)c1)c1ncnn1-c1ncccn1 (centres unmarked) [Compound I-63] yielded mortality at 500 g/ha of 100

Query CC(c1ncnn1-c1ncccn1)N(CC1CC1)C(=O)c1cc(Cl)cc(OC(F)(F)F)c1 (centres unmarked) [Compound I-37] yields mortality at 500 g/ha of 100

Quick note, mortality at 500 g/ha for CC(c1ncnn1-c1ncccn1)N(Cc1ccccc1)C(=O)c1cc(Cl)cc(C(F)(F)F)c1 (centres unmarked) [Compound I-99] landed at 90

// mortality at 500 g/ha lookup, molecule = CCN(C(=O)c1cc(Cl)cc(C(F)(F)F)c1)C(C)c1ncnn1-c1ncccn1 (centres unmarked) [Compound I-97] , result: 100

# mortality at 500 g/ha (molecule: CC(c1ncnn1-c1ncccn1)N(CC(F)F)C(=O)c1cccc(SC(F)(F)F)c1 (centres unmarked) [Compound I-122] ) is 100

These data points were gathered from patent US20200404919A1.
